All values here come from the RNAGym collection of RNA variant scans (doi:10.1021/acssynbio.7b00057).

B1: Pistol ribozyme (parent)
chain: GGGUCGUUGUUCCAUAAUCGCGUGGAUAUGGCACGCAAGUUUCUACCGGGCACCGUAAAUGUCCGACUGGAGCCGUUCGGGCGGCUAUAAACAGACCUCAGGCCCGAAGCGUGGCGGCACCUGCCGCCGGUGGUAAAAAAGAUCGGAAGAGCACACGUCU

# Variants of: B1
# assay-explanation: aptazyme ON/OFF ratio, guanine; higher = stronger switching; co-transcriptional cleavage with and without guanine
property-name: aptazyme ON/OFF ratio
// print number alone

Example cases with answers are listed next.
• U8A G9A U10A U11C C13U = 1.05
• U7G U8G G9U U10A U11G C12G C13U = 1.05
• U8C G9A U10A U11G = 1.45
• U7A U8A G9A U10C U11A C12U C13A = 1.1
• U7G U8G G9C U10C C12G C13U = 1.27
• U7G U8G G9A U10C U11C C12U C13G = 1.36
• U7A U8A G9U U10C U11G C12U = 1.22
• U10A = 1.15
• U7A U8C G9C U10C U11G = 1.03
• U7C U8C G9U U10G U11A C12G = 1.25

Consider the additional variant presented here.
The measured aptazyme ON/OFF ratio associated with U7A U8C G9U U10A U11A C12G reads 1.27
